# tested target: TYK2 (Homo sapiens (Human))
# Sequence (P29597 whole entry, species assumed): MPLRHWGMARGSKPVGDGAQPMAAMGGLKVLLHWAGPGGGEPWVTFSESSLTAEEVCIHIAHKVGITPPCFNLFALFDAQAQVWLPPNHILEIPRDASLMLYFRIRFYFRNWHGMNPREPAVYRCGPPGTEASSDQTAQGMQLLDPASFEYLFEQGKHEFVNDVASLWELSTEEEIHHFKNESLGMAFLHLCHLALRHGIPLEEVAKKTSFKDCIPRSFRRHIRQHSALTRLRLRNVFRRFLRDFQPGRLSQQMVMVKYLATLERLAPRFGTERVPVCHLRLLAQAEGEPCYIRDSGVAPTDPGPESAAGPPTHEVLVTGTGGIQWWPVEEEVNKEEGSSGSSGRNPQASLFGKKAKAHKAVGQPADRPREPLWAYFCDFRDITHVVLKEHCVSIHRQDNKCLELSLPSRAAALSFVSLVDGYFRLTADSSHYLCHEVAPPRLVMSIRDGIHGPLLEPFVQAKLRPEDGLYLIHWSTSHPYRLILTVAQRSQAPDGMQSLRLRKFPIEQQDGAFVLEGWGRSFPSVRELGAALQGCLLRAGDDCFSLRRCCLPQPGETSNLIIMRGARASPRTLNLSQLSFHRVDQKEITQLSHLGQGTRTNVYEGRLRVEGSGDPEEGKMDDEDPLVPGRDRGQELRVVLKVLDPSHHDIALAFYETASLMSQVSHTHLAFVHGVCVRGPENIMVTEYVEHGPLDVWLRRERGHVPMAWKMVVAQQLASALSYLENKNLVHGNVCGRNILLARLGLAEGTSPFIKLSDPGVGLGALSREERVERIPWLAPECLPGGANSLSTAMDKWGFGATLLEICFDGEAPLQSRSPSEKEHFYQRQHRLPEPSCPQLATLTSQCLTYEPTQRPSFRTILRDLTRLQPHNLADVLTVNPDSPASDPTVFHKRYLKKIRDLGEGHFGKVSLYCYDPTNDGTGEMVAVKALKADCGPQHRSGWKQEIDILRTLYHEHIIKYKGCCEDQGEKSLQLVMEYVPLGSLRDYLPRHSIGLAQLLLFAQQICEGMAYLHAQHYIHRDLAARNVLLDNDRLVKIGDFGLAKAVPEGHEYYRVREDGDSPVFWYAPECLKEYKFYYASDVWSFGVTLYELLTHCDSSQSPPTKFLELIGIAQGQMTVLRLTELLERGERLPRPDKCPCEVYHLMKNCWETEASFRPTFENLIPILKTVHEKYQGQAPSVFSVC
I'd appreciate it if you could supply IC50 values for the items below.

Please look at the items below and tell me IC50 for each one, in order.
1. Cc1cc(Nc2ncc(C)c(N3CC(CC#N)(N4CCN5C[C@H](C)C[C@H]5C4)C3)n2)sn1 [E117a]
2. Cc1cnc(Nc2cnn(C)c2)nc1N1CC(CC#N)(N2CCN3C[C@H](F)C[C@H]3C2)C1 [E152a]
3. Cc1cc(Nc2ncc(C)c(N3CC(CC#N)(N4CCCC5(CC5)C4)C3)n2)sn1
4. Cc1cc(Nc2ncc(C)c(N3CC(CC#N)(N4CCN5C[C@H](F)C[C@@H]5C4)C3)n2)sn1 [E75a]
5. Cc1cnc(Nc2cnn(C)c2)nc1N1CC(=CC#N)C1 [E174a]

// result
< 10 nM
< 10 nM
< 10 nM
< 10 nM
< 200 nM
